# key: entry, value: melting point

Worked cases, answers included:
CNc1nc(-c2cccc(NC(=O)c3ccc(OC)c(Cl)c3)c2)c2cc(OC)c(OC)cc2n1 130 to 132 °C
CNc1nc(-c2cccc(NC(=O)Cc3ccccc3)c2)c2cc(OC)c(OC)cc2n1 175 to 177 °C
CNc1nc(-c2cccc(NC(=O)c3ccc(OC)c(OC4CCCC4)c3)c2)c2cc(OC)c(OC)cc2n1 129 to 131 °C

Find the measured melting point of CNc1nc(-c2cccc(N3C(=O)c4ccccc4C3=O)c2)c2cc(OC)c(OC)cc2n1 and report it.
280 to 282 °C

Given CNc1nc(-c2cccc(NC(=O)c3cccc(OCc4ccccc4)c3)c2)c2cc(OC)c(OC)cc2n1 , respond with its melting point.
110 to 112 °C

Answer with the recorded melting point of CNc1nc(-c2cccc(NC(=O)c3ccncc3)c2)c2cc(OC)c(OC)cc2n1 only.
228 to 230 °C

* * *

MEASURED METRIC: melting point

CNc1nc(-c2cncc(-c3ccccc3)c2)c2cc(OC)c(OC)cc2n1 177 to 179 °C

Quickly give me recorded melting point for CNc1nc(-c2cccc(C(=O)Nc3ccccc3)c2)c2cc(OC)c(OC)cc2n1
242 to 244 °C

Tell me its melting point given CNc1nc(-c2cccc(-c3ccc(SC)cc3)c2)c2cc(OC)c(OC)cc2n1 as the entry.
140 to 142 °C
